Target: T1, mouse CD47 (mCD47) expressed on CHO cells (mouse, UniProt Q61735 19-303)
T1 construct: whole, on cells; also called CHO-mCD47
T1 sequence (looked up): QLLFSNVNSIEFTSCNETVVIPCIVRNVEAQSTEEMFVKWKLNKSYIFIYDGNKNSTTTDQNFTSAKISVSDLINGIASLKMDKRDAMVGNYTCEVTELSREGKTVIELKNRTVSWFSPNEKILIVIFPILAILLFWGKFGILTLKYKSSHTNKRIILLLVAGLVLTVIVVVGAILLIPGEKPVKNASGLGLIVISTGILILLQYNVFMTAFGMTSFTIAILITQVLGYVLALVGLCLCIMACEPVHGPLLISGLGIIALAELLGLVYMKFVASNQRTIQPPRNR
Assay: flow cytometry, CHO-mCD47 cells (not shown)
readout: binding result

binder	readout	testValue
h20-VH5-VL3 (candidate 20.23) (antibody, human IgG4 S228P, kappa, V domains shown, hIgG4-S228P/kappa; also called h20-H5-L3) VH: QVQLVQSGAEVKKPGASVKVSCKASGYSFTDYYINWVRQAPGQGLEWMGRIYPGIGNTYYNKKFKGRVTMTRYTSISTAYMELSRLRSDDTAVYFCARGHYGRGMDYWGQGTTVTVSS VL: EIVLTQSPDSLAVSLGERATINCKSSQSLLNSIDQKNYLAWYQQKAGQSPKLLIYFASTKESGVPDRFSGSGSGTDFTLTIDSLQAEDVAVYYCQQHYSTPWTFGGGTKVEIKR	binding result	no binding
h20-VH5-VL5 (candidate 20.25) (antibody, human IgG4 S228P, kappa, V domains shown, hIgG4-S228P/kappa; also called h20-H5-L5) VH: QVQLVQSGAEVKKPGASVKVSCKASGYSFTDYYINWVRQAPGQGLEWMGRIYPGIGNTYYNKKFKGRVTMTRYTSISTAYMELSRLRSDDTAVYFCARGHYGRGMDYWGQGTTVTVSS VL: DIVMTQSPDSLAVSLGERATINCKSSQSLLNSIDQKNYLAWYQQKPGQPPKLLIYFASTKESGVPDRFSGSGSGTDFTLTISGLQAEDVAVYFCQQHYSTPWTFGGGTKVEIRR	binding result	no binding
